Biological target: Human HER3, endogenous, on human cancer cell lines (SK-Br-3, MCF7, BT-474) (human, UniProt P21860 20-1342)
Sequence (P21860 20-1342): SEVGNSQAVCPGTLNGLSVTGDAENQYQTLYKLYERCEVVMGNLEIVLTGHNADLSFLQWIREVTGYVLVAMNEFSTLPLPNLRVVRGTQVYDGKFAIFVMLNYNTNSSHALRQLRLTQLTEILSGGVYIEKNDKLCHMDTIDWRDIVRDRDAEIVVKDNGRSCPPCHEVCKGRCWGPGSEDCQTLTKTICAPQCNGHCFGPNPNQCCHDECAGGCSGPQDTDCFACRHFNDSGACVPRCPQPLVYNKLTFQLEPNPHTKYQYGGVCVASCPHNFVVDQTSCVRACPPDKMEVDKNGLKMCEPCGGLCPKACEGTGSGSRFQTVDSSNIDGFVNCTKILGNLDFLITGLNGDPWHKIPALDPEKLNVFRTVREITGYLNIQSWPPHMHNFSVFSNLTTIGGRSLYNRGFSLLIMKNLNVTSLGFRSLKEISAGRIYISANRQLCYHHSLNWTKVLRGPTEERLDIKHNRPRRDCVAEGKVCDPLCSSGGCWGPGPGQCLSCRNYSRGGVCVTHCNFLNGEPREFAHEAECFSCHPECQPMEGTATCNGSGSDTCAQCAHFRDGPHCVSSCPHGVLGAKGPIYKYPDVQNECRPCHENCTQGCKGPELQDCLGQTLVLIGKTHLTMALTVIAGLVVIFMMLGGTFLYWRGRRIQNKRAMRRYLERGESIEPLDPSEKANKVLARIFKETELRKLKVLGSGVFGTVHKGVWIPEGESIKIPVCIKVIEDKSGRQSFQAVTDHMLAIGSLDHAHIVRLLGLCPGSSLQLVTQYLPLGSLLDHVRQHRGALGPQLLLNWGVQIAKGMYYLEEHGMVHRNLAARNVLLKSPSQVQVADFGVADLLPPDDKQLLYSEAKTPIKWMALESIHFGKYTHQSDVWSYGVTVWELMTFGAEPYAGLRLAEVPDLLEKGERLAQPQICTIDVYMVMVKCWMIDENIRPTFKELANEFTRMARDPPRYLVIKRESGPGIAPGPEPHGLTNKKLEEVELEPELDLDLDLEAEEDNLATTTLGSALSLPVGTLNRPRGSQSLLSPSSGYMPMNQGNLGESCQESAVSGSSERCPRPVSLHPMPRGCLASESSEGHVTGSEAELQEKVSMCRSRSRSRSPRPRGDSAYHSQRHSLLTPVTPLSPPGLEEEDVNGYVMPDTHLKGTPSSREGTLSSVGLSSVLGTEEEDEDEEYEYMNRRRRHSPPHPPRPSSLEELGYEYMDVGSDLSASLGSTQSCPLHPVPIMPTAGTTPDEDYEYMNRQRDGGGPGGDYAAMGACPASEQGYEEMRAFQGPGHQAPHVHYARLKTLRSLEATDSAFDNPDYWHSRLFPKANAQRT
Experiment: cell-based or functional assay
assayEndpoint: SK-Br-3 pAkt (S473) IC50 (pM)
Numbers only here, please. The scale is pM.

binder	SK-Br-3 pAkt (S473) IC50 (pM)
MOR13758 (antibody, human IgG1, kappa, V domains shown, tested as IgG) VH: QVQLVQSGAEVKKPGESLKISCKGSGYSFTLYWVAWVRQMPGKGLEWMGIIYPGQSDTIYSPSFQGQVTISADKSISTAYLQWSSLKASDTAMYYCARVHIIQPPSAWSYNAMDVWGQGTLVTVSS VL: DIQMTQSPSSLSASVGDRVTITCRASQSISTYLNWYQQKPGKAPKLLIFGASNLQSGVPSRFSGSGSGTDFTLTISSLQPEDFATYYCQQSITELFTFGQGTKVEIKR	110

Next item in the queue.
Lookup: Find the recorded SK-Br-3 pAkt (S473) IC50 belonging to MOR13756 (antibody, human IgG1, kappa, V domains shown, tested as IgG) VH: QVQLVQSGAEVKKPGESLKISCKGSGYSFTLTWVAWVRQMPGKGLEWMGIIYPGQSDTIYSPSFQGQVTISADKSISTAYLQWSSLKASDTAMYYCARVHIIQPPSAWSYNAMDVWGQGTLVTVSS VL: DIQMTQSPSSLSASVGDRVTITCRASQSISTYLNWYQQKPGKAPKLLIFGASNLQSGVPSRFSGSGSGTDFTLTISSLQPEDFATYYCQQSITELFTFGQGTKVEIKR and report it.
Found: 107
